Test Target: hPPARalpha (Homo sapiens)
Construct: Gal4-hPPARα(LBD); Gal4 (fusion partner); expressed in transfected cells; host or cells: COS-7 (monkey kidney)
Sequence (Q07869 239-466 limits assumed): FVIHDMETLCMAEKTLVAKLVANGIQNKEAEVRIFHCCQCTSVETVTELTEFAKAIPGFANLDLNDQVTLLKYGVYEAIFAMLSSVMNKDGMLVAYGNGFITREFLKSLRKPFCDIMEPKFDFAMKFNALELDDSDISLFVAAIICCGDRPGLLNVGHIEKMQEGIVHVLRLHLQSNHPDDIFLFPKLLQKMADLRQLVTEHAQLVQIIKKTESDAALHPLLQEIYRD
Procedure Details: Gal4-hPPARalpha transactivation assay in COS-7 cells (luciferase)
Format: cell-based
Conditions: Gal4-hPPARα(LBD) transactivation
Description: Monkey kidney COS-7 cells were maintained in standard culture conditions (Dulbecco's modified Eagle's minimal medium: DMEM) supplemented with 10% fetal calf serum, 1% sodium pyruvate, 1% essential amino acids and 1% antibiotics at 37° C. in a humidified atmosphere of 5% C02 and 95% air. The medium was changed every 2 days. All tested compounds were dissolved in DMSO. […] The luciferase activity was measured with the Steady-Glo Luciferase Assay System (Promega, Madison, Wis.). […]
Property: pEC50
Please express pEC50 as -log10 of the molar concentration.

Cc1cc(C2CC2C(OCc2ccccc2)c2ccc(OC(F)(F)F)cc2)cc(C)c1OC(C)(C)C(=O)O (single isomer, unassigned) [Cpd 11-2] : 7.00
COC(c1ccc(OC(F)(F)F)cc1)C1CC1c1cc(C)c(OC(C)(C)C(=O)O)c(C)c1 (single isomer, unassigned) [Cpd 14-1-1] : 6.68
COC(c1ccc(OC(F)(F)F)cc1)C1CC1c1ccc(OC(C)(C)C(=O)O)c(C2CC2)c1 (racemic) : 5.44
COC(c1ccc(OC(F)(F)F)cc1)C1CC1c1cc(C)c(OC(C)(C)C(=O)O)c(C)c1 (single isomer, unassigned) [Cpd 14-1-2] : 7.92

Would you kindly share the measured pEC50 for COC(c1ccc(SC)cc1)C1CC1c1cc(C)c(OC(C)(C)C(=O)O)c(C)c1 (single isomer, unassigned) [Cpd 3-2] ?
6.86

Would you kindly share the measured pEC50 for COc1cc(OC(F)(F)F)ccc1C(OC)C1CC1c1cc(C)c(OC(C)(C)C(=O)O)c(C)c1 (racemic) ?
7.42

Would you kindly share the measured pEC50 for COC(c1ccc(OC(F)(F)F)cc1)C1CC1c1ccc(OC(C)(C)C(=O)O)c(Br)c1 (racemic) ?
6.80

Would you kindly share the measured pEC50 for COC(c1ccc(C(F)(F)F)cc1C(F)(F)F)C1CC1c1cc(C)c(OC(C)(C)C(=O)O)c(C)c1 (single isomer, unassigned) [Cpd 16-2] ?
7.30

Would you kindly share the measured pEC50 for COC(c1ccc(OC(F)(F)F)cc1)C1CC1c1cc(C)c(OC(C)(C)C(=O)O)c(C)c1 (single isomer, unassigned) [Cpd 14-1] ?
7.49
